Test system: HLA Class I molecules
PROTOCOL_DESCRIPTION: HLA class I binding stability assay (pMHC-I complex dissociation, 125I-labeled β2m, scintillation counts)
Set-up: species or system human
EXPERIMENTAL_CONDITIONS: allele A02.01; 37° C.
Where no end group is shown, it is not given here.
So basically, the class depends on measured Stability (T1/2 (h)), and the ranges are 1: < 0.6 h; 2: ≥ 0.6 h and < 4 h; 3: ≥ 4 h

MACROMOLECULE_SEQUENCE: MNWRPILTII
LABEL: 1
//
MACROMOLECULE_SEQUENCE: ALSASNSCFI
LABEL: 2
//
MACROMOLECULE_SEQUENCE: SLYIVGFYGA
LABEL: 1
//
MACROMOLECULE_SEQUENCE: ALSASNSCF
LABEL: 1
//
MACROMOLECULE_SEQUENCE: VLHESNSPYI
LABEL: 2
//
MACROMOLECULE_SEQUENCE: WMTETLFDIV
LABEL: 1
//
MACROMOLECULE_SEQUENCE: MNWRPILTI
LABEL: 2
//
MACROMOLECULE_SEQUENCE: GLLAFWDSQV
LABEL: 3
//
MACROMOLECULE_SEQUENCE: MNIANLLGA
LABEL: 1
//
MACROMOLECULE_SEQUENCE: LLAFWDSQV
LABEL: 3
//
MACROMOLECULE_SEQUENCE: YQQQQQSDL
LABEL: 1
//
MACROMOLECULE_SEQUENCE: FSGEYIPTV
LABEL: 3
//
MACROMOLECULE_SEQUENCE: VMAYVMAGV
LABEL: 3
//
MACROMOLECULE_SEQUENCE: ALSEHCPTT
LABEL: 3
//
MACROMOLECULE_SEQUENCE: VMAGLGSPYV
LABEL: 2
//
MACROMOLECULE_SEQUENCE: LLQEFDVQEA
LABEL: 2
//
MACROMOLECULE_SEQUENCE: VLTVTSTDV
LABEL: 2
//
MACROMOLECULE_SEQUENCE: SMLTDSLFL
LABEL: 3
//
MACROMOLECULE_SEQUENCE: VLHECNSLYI
LABEL: 3
//
MACROMOLECULE_SEQUENCE: IIIEYCFYG
LABEL: 2

###

ASSAYED_TARGET: HLA class I molecule
PROTOCOL_DESCRIPTION: HLA class I peptide binding affinity assay (inhibition of 125I-radiolabeled probe peptide binding to purified HLA)
Set-up: species or system human
EXPERIMENTAL_CONDITIONS: allele A02.01; read-out: Observed Affinity (IC50; (nM))
Where no end group is shown, it is not given here.

MACROMOLECULE_SEQUENCE: KQWSSVTSL
IC50 / nM: 26.5

MACROMOLECULE_SEQUENCE: KITEQEKDFL
IC50 / nM: 1400

MACROMOLECULE_SEQUENCE: RVAKIADFGM
IC50 / nM: 125

MACROMOLECULE_SEQUENCE: GLSISCTTL
IC50 / nM: 114

MACROMOLECULE_SEQUENCE: QQQSDLQPPA
IC50 / nM: 646

MACROMOLECULE_SEQUENCE: CLADVLLSV
IC50 / nM: 219

MACROMOLECULE_SEQUENCE: LIVSRTLLLV
IC50 / nM: 10900

MACROMOLECULE_SEQUENCE: MLTGPPARV
IC50 / nM: 10.6

MACROMOLECULE_SEQUENCE: LLPEDTPPL
IC50 / nM: 2.8

MACROMOLECULE_SEQUENCE: VMSDTTYKI
IC50 / nM: 19.6

MACROMOLECULE_SEQUENCE: YMANGSLLN
IC50 / nM: 4440

###

System: HLA Class I molecules
PROTOCOL_DESCRIPTION: HLA class I binding stability assay (pMHC-I complex dissociation, 125I-labeled β2m, scintillation counts)
Parameters: species or system human
EXPERIMENTAL_CONDITIONS: allele A02.01; 37° C.
So basically, the class depends on measured Stability (T1/2 (h)), and the ranges are category 1 = under 0.5 h, category 2 = from 0.5 h up to 5 h, category 3 = 5 h and over

STRUCTURE_SMILES_STRING: CC[C@H](C)[C@H](NC(=O)[C@H](CCC(N)=O)NC(=O)[C@@H](N)CO)C(=O)N[C@@H](CCSC)C(=O)N[C@@H](CO)C(=O)N[C@@H](CC(C)C)C(=O)N[C@@H](Cc1c[nH]c2ccccc12)C(=O)NCC(=O)N[C@@H](CC(C)C)C(=O)O
LABEL: category 2
//
STRUCTURE_SMILES_STRING: CC[C@H](C)[C@H](NC(=O)[C@H](CO)NC(=O)[C@H](Cc1c[nH]c2ccccc12)NC(=O)[C@H](Cc1c[nH]cn1)NC(=O)[C@H](C)NC(=O)[C@@H]1CCCN1C(=O)[C@H](CCSC)NC(=O)[C@H](CC(C)C)NC(=O)[C@H](CO)NC(=O)[C@@H](N)CC(C)C)C(=O)O
LABEL: category 1
//
STRUCTURE_SMILES_STRING: CC[C@H](C)[C@H](NC(=O)[C@@H]1CCCN1C(=O)[C@H](CCCNC(=N)N)NC(=O)[C@H](Cc1c[nH]c2ccccc12)NC(=O)[C@H](CC(N)=O)NC(=O)[C@H](CCSC)NC(=O)CNC(=O)CNC(=O)[C@H](CCSC)NC(=O)[C@@H](N)CS)C(=O)O
LABEL: category 1
//
STRUCTURE_SMILES_STRING: CC[C@H](C)[C@H](NC(=O)[C@@H](NC(=O)[C@H](CC(C)C)NC(=O)[C@@H](NC(=O)[C@@H]1CCCN1C(=O)[C@H](CCCNC(=N)N)NC(=O)[C@H](CCC(N)=O)NC(=O)[C@H](CC(N)=O)NC(=O)[C@H](CCSC)NC(=O)CN)[C@@H](C)CC)[C@@H](C)O)C(=O)O
LABEL: category 1
//
STRUCTURE_SMILES_STRING: CC(C)C[C@H](NC(=O)CN)C(=O)N[C@H](C(=O)N[C@@H](CC(=O)O)C(=O)N[C@@H](CCC(=O)O)C(=O)N[C@@H](CCC(N)=O)C(=O)N[C@@H](CCC(N)=O)C(=O)N[C@@H](CCC(=O)O)C(=O)N[C@H](C(=O)O)C(C)C)C(C)C
LABEL: category 3
//
STRUCTURE_SMILES_STRING: CC(C)C[C@H](NC(=O)[C@@H]1CCCN1C(=O)[C@H](CS)NC(=O)[C@H](CC(C)C)NC(=O)[C@H](Cc1c[nH]cn1)NC(=O)[C@H](CC(N)=O)NC(=O)CNC(=O)[C@H](CC(C)C)NC(=O)[C@@H](N)CO)C(=O)O
LABEL: category 2
//
STRUCTURE_SMILES_STRING: CC[C@H](C)[C@H](NC(=O)[C@@H]1CCCN1C(=O)[C@H](CC(C)C)NC(=O)[C@H](Cc1ccccc1)NC(=O)[C@H](CC(C)C)NC(=O)[C@H](CO)NC(=O)[C@H](CC(=O)O)NC(=O)[C@@H](NC(=O)[C@H](CC(C)C)NC(=O)[C@@H](N)CCSC)[C@@H](C)O)C(=O)O
LABEL: category 2
//
STRUCTURE_SMILES_STRING: CSCC[C@H](NC(=O)[C@H](CC(C)C)NC(=O)[C@H](CO)NC(=O)[C@H](CC(C)C)NC(=O)[C@@H]1CCCN1C(=O)[C@H](CCC(N)=O)NC(=O)[C@H](CCSC)NC(=O)[C@H](CCC(N)=O)NC(=O)[C@@H](N)Cc1ccccc1)C(=O)O
LABEL: category 1
//
STRUCTURE_SMILES_STRING: CC(C)[C@H](N)C(=O)N[C@H](C(=O)N1CCC[C@H]1C(=O)N[C@@H](CS)C(=O)N[C@@H](CCC(=O)O)C(=O)N1CCC[C@H]1C(=O)N1CCC[C@H]1C(=O)N[C@@H](CCC(=O)O)C(=O)N[C@H](C(=O)O)C(C)C)C(C)C
LABEL: category 2
//
STRUCTURE_SMILES_STRING: CSCC[C@H](NC(=O)[C@@H](NC(=O)[C@H](Cc1ccc(O)cc1)NC(=O)[C@H](C)NC(=O)[C@H](CCSC)NC(=O)[C@@H](NC(=O)[C@@H](N)Cc1ccc(O)cc1)C(C)C)C(C)C)C(=O)N[C@@H](C)C(=O)NCC(=O)N[C@H](C(=O)O)C(C)C
LABEL: category 3
//
STRUCTURE_SMILES_STRING: CC(C)C[C@H](NC(=O)[C@@H](N)Cc1ccccc1)C(=O)N[C@@H](CCC(N)=O)C(=O)N[C@@H](CCC(=O)O)C(=O)N[C@@H](CCC(N)=O)C(=O)N[C@@H](Cc1ccc(O)cc1)C(=O)N[C@@H](Cc1c[nH]cn1)C(=O)N[C@@H](CCC(=O)O)C(=O)N[C@@H](C)C(=O)O
LABEL: category 3
//
STRUCTURE_SMILES_STRING: CC[C@H](C)[C@H](NC(=O)[C@H](CCCCN)NC(=O)[C@H](CO)NC(=O)[C@H](CCC(=O)O)NC(=O)[C@H](C)NC(=O)[C@H](CCCCN)NC(=O)[C@H](CC(C)C)NC(=O)[C@H](Cc1ccccc1)NC(=O)[C@H](CCSC)NC(=O)[C@@H](N)Cc1ccc(O)cc1)C(=O)O
LABEL: category 2
//
STRUCTURE_SMILES_STRING: CC(C)C[C@H](NC(=O)[C@@H](NC(=O)[C@H](CC(=O)O)NC(=O)[C@H](CC(C)C)NC(=O)[C@@H](NC(=O)[C@@H](N)Cc1ccc(O)cc1)[C@@H](C)O)C(C)C)C(=O)N[C@@H](CCC(=O)O)C(=O)N[C@@H](CCCNC(=N)N)C(=O)N[C@@H](CS)C(=O)O
LABEL: category 3
